Record form. Attribute: solubility kinetic. Fill in for each entry.
# assayMethodText: Aqueous solubility of the compound in phosphate buffer by turbidimetric method
# Type: physicochemical
Numbers only, in µM.

Reference set, count: 2
1. C[C@]12CC[C@H](NS(C)(=O)=O)C[C@@H]1CC[C@@H]1[C@@H]2CC[C@]2(C)[C@@H](C(=O)CO)CC[C@@H]12 | 10
2. C[C@]12CC[C@H](NS(N)(=O)=O)C[C@@H]1CC[C@@H]1[C@@H]2CC[C@]2(C)C(=O)CC[C@@H]12 | 30

*Q* Given `CC(=O)[C@H]1CC[C@H]2[C@@H]3CC[C@H]4C[C@@H](NS(N)(=O)=O)CC[C@]4(C)[C@H]3CC[C@]12C` , state its recorded solubility kinetic.
*A* 10
